Tested on: XF 498 CNS
assay-explanation: NCI tumour cell line growth inhibition, 48 h
Assignment: determine reported TGI for the given molecules.

Sample COc1nc(NC2OC(COC(C)=O)C(OC(C)=O)C(OC(C)=O)C2OC(C)=O)c(N=C(C)C(C)=O)c(=O)n1C (stereo unspecified) — what was its TGI?
> 100 µM

Sample CC(=O)O[C@H]1CC[C@@]2(C)C(=CC[C@H]3C(CC#N)[C@@](C)(C#N)CCC32)C1 (stereo partly specified) — what was its TGI?
> 100 µM

Sample Oc1ccc(O)c(-n2cccn2)c1 — what was its TGI?
> 100 µM

Sample C=CCN=C1NC(=O)C(CC(=O)Nc2cccc(Cl)c2)S1 (stereo unspecified) — what was its TGI?
> 100 µM

Sample COC(=O)C(/C(=N/N)C(=O)Nc1cc(Cl)ccc1Cl)c1nc2ccc([N+](=O)[O-])cc2[nH]c1=O (stereo unspecified) — what was its TGI?
> 100 µM

Sample CSc1nc2c(nc(N)n2C2OC(CO)C(O)C(O)C2O)c(=O)[nH]1 (stereo unspecified) — what was its TGI?
> 100 µM

###

Assignment: determine reported TGI for the given molecules.
Tested on: SK-MEL-28 melanoma
assay-explanation: NCI tumour cell line growth inhibition, 48 h

Sample O=c1cccccc1O — what was its TGI?
> 100 µM

Sample O=S(=O)(O)c1ccc(N=Nc2ccc(N=Nc3c(O)ccc4ccc(S(=O)(=O)O)cc34)cc2)cc1 — what was its TGI?
> 100 µM

Sample C=C1C2CC(OC(C)=O)C3(C)C(c4ccoc4)OC(=O)[C@@H](O)[C@]13OC1C[C@H](OC(C)=O)C(C)(C)[C@H](C(O)C(=O)OC)[C@]12C (some centres not stated) — what was its TGI?
> 100 µM

Sample COc1ccc(Cc2ccc3[nH]c(=O)cc(C)c3c2)cc1S(=O)(=O)O — what was its TGI?
> 100 µM

Sample O=C1CC=C2C3CC4N(CCC45c4ccccc4N1C25)C/C3=C\CO (configuration not stated) — what was its TGI?
> 100 µM

Sample COC(Cc1cc(C(O)(c2ccc(C(C)(C)C)cc2)c2cc(CC(OC)(c3cc(C(OC)(c4ccc(C(C)(C)C)cc4)c4ccc(C(C)(C)C)cc4)c(C)cc3C)c3cc(C(OC)(c4ccc(C(C)(C)C)cc4)c4ccc(C(C)(C)C)cc4)c(C)cc3C)c(C)cc2C)c(C)cc1C)(c1cc(C(OC)(c2ccc(C(C)(C)C)cc2)c2ccc(C(C)(C)C)cc2)c(C)cc1C)c1cc(C(OC)(c2ccc(C(C)(C)C)cc2)c2ccc(C(C)(C)C)cc2)c(C)cc1C — what was its TGI?
> 75 µM

Sample N#C[S-].[Ce+3].c1ccc(-c2ccccn2)nc1.c1ccc(-c2ccccn2)nc1.c1ccc(-c2ccccn2)nc1 — what was its TGI?
> 100 µM

Sample CC1=C/C(=N\NS(=O)(=O)c2ccc([N+](=O)[O-])cc2)CC(C)(C)C1 — what was its TGI?
> 100 µM

Sample C=CC(=C)CCC(Br)C(C)(C)Br (configuration not stated) — what was its TGI?
> 100 µM

Sample Cc1ccc(NC(=O)CCc2nnc3s/c(=C\C=C\c4ccccc4)c(=O)n23)cc1 — what was its TGI?
> 100 µM

Sample CC1=C(C(=O)O)N2C(=O)[C@@H](NC(=O)C(c3ccccc3)N3CSC(=S)N(C(C)C)C3)C2SC1 (some centres not stated) — what was its TGI?
> 100 µM

Sample C[n+]1c2ccccc2n2c3ccccc3c(NCc3ccco3)c(C#N)c21 — what was its TGI?
5.75 µM

Sample COC1CC(O[C@H]2CC[C@@]3(C)C(=CCC4(O)C3CCC35C(=O)OC6(C)O[C@@]43CCC65)C2)OC(C)C1O (some centres not stated) — what was its TGI?
> 100 µM

Sample COc1ccc2c(c1)C(=O)/C(=C/c1ccc(O)cc1)O2 — what was its TGI?
29.6 µM

Sample COc1ccc(C2=NN(C(C)=O)c3nc4ccccc4nc3O2)cc1 — what was its TGI?
> 100 µM

Sample O=[N+]([O-])c1cc(I)cc(/C=N/NS(=O)(=O)c2ccc(F)cc2)c1O — what was its TGI?
81.6 µM

Sample CO/S(=N/S(=O)(=O)c1ccccc1)c1ccccc1[N+](=O)[O-] (configuration not stated) — what was its TGI?
> 100 µM

Sample Cc1cc2c3c(nc2c2cc[nH]c(C)c12)CCCC3 — what was its TGI?
3.57 µM

Sample Nc1ccc2nc3n(c2c1)C(c1c(F)cccc1F)SC3 (configuration not stated) — what was its TGI?
> 100 µM

Sample O=C(N/N=C\c1ccc(N(CCCl)CCCl)cc1)c1cccnc1 — what was its TGI?
> 100 µM

Sample Nc1ccc(C(=O)CC2(O)C(=O)Nc3ccccc32)cc1 (configuration not stated) — what was its TGI?
> 100 µM

Sample Cc1c(C)c(S(=O)(=O)N(CCCN)OCCCN)c(C)c2c1OC(C)(C)CC2 — what was its TGI?
28.5 µM

Sample Oc1ccc(Br)cc1C=NC1CCCCC1 — what was its TGI?
> 100 µM

Sample O=C1/C(=C/c2ccc(Cl)cc2)N=C(c2ccccc2)N1c1cc(C(F)(F)F)ccc1Cl — what was its TGI?
> 100 µM

Sample Nc1nncc2n[nH]nc12 — what was its TGI?
> 100 µM

Sample Cn1cnc(SC2=CC(=O)C=C3S[C@H]4C[C@@]23c2c(c(O)c3c5c2=NCCC=5C=N3)N4)c1CC(N)C(=O)O (some centres not stated) — what was its TGI?
30.4 µM

Sample COC(=O)c1ccc(NCC2=CC(=O)C=CC2=O)cc1O — what was its TGI?
> 100 µM

###

Test system: ACHN renal
assay-explanation: NCI tumour cell line growth inhibition, 48 h
Assignment: determine reported TGI for the given molecules.

Sample FC(F)(F)c1cccc(Oc2ccc(Nc3ncnc4ccc(OCCCN5CCOCC5)cc34)cc2Cl)c1 — what was its TGI?
11.1 µM

Sample CC(C)(C)c1ccc(NS(=O)(=O)c2ccc(N)cc2)cc1 — what was its TGI?
83.6 µM

Sample Oc1c(CN2CCCCC2)ccc2cccnc12 — what was its TGI?
> 100 µM

Sample O=C1/C(=C/c2ccc([N+](=O)[O-])cc2)CCCc2ccccc21 — what was its TGI?
> 100 µM

Sample COC(=O)c1ccc(Oc2nc3ccc(C(F)(F)F)cc3nc2-c2ccccc2)cc1 — what was its TGI?
> 100 µM

Sample CC[C@@]1(O)C(=O)OCc2c1cc1n(c2=O)Cc2c-1nc1ccccc1c2/C=N\NC(=O)C(N)Cc1ccc(O)cc1 (stereo not given in full) — what was its TGI?
2.75 µM

Sample C/C(CC(O)(C(F)(F)F)C(F)(F)F)=N\NC(N)=S — what was its TGI?
> 10 µM

Sample COc1ccc(CC2Cc3ccccc3CC(=O)N2)cc1OC (stereo not given) — what was its TGI?
> 100 µM

Sample COc1cc(-c2n/c(=C\c3c(O)[nH]c4ccccc34)cc3c2=Nc2ccccc2-3)ccc1F — what was its TGI?
35.2 µM

Sample COc1ccc2c(c1)c1ccc3c(c1n2C)C(=O)C=CC3=O — what was its TGI?
14.9 µM

###

Tested on: UACC-62 melanoma
assay-explanation: NCI tumour cell line growth inhibition, 48 h
Where a SMILES comes first, the peptide text is derived from it.
quantity-measured: TGI

Quick check: TGI on UACC-62 melanoma, item Cc1cc(C)c([I+]c2c(C)cc(C)cc2C)c(C)c1 ?
1.5 µM

Quick check: TGI on UACC-62 melanoma, item CC12CP(=O)(O)CC1C2(Cl)Cl (configuration not stated) ?
> 100 µM

Quick check: TGI on UACC-62 melanoma, item COc1ccc2[nH]c3c(c2c1)CCc1c(OC)cccc1-3 ?
> 100 µM

Quick check: TGI on UACC-62 melanoma, item CCC(CO)Nc1nc(NCc2ccccc2)c2n[nH]c(C(C)C)c2n1 (configuration not stated) ?
24.7 µM

Quick check: TGI on UACC-62 melanoma, item C=CCN=C1NC(=O)C(CC(=O)Nc2cccc(Cl)c2)S1 (configuration not stated) ?
> 100 µM

Quick check: TGI on UACC-62 melanoma, item N#C[S-].[Ce+3].c1ccc(-c2ccccn2)nc1.c1ccc(-c2ccccn2)nc1.c1ccc(-c2ccccn2)nc1 ?
55.2 µM

Quick check: TGI on UACC-62 melanoma, item NC1=Nc2ccccc2Sc2nccn21 ?
> 100 µM

Quick check: TGI on UACC-62 melanoma, item Oc1ccc(O)c(-n2cccn2)c1 ?
> 100 µM

Quick check: TGI on UACC-62 melanoma, item COC(=O)[C@@H](C)C[C@H](Cc1ccccc1)NC(=O)c1csc([C@@H](C[C@H](C(C)C)N(C)C(=O)[C@@H](NC(=O)[C@H]2CCCCN2C)c2ccc(F)cc2)OC(C)=O)n1 ?
25 µM

Quick check: TGI on UACC-62 melanoma, item Cc1cn(C(CO)OC(CO)CN(O)C2C3CC4CC(C3)CC2C4)c(=O)[nH]c1=O (configuration not stated) ?
> 100 µM

Quick check: TGI on UACC-62 melanoma, item C=C[C@@H]1CCC/C=C/[C@@H]2C[C@H](O)C[C@H]2[C@H](O)/C=C/C(=O)O1 ?
> 100 µM

Quick check: TGI on UACC-62 melanoma, item COc1ccc(C2=NN(C(C)=O)c3nc4ccccc4nc3O2)cc1 ?
> 100 µM

Quick check: TGI on UACC-62 melanoma, item CC(=O)OC1CC2C(C)(C)C(=O)C=C[C@]2(C)C2CCC3(C)C(c4ccoc4)C(=O)C4OC43[C@]12C (some centres not stated) ?
34.3 µM

Quick check: TGI on UACC-62 melanoma, item Cc1cc(OP2(=O)NCc3ccncc3O2)ccc1Cl (configuration not stated) ?
> 100 µM

Quick check: TGI on UACC-62 melanoma, item COc1ccc(-c2oc3ncnc(N)c3c2-c2ccc(NC(=O)Nc3cc(C(F)(F)F)ccc3F)cc2)cc1 ?
4.23 µM

Quick check: TGI on UACC-62 melanoma, item CC(=O)NC(CS)C(=O)NC(CO)C(=O)NC(CO)C(=O)NC(Cc1c[nH]c2ccccc12)C(=O)N1CCCC1C(=O)NC(CO)C(=O)NC(Cc1c[nH]c2ccccc12)C(=O)NC(Cc1c[nH]cn1)C(=O)NC(CO)C(=O)NC(Cc1c[nH]c2ccccc12)C(=O)NCC(=O)NCC(=O)NC(C)C(=O)NC(CCC(N)=O)C(=O)NC(CCCCN)C(=O)NC(C)C(=O)NC(CCCNC(=N)N)C(=O)NC(CCCCN)C(N)=O (configuration not stated) (Ac-CSSWPSWHSWGGAQKARK-NH2; configuration not given here) ?
24 µM

Quick check: TGI on UACC-62 melanoma, item CC[C@@]1(O)C(=O)OCc2c1cc1n(c2=O)Cc2c-1nc1ccccc1c2/C=N\NC(=O)C(N)Cc1ccc(O)cc1 (some centres not stated) ?
1.71 µM

Quick check: TGI on UACC-62 melanoma, item CC(C)(C)n1[nH]c(=O)n(C(C)(C)C)c1=O ?
> 100 µM

Quick check: TGI on UACC-62 melanoma, item O=c1oc2ccc(F)cc2c(=O)n1-c1ccc(I)cc1F ?
1.1 µM

Quick check: TGI on UACC-62 melanoma, item CC[C@H](C)[C@H](NC(=O)c1ncccn1)C(=O)N(C)[C@H](C[C@@H](OC(C)=O)c1nc(C(=O)N[C@@H](Cc2ccccc2)C[C@H](C)C(=O)OC)cs1)C(C)C ?
> 25 µM

Quick check: TGI on UACC-62 melanoma, item CON1C(=O)C2(CCCCC2)C(=O)C12C=CC(C)CC2 (configuration not stated) ?
> 100 µM

Quick check: TGI on UACC-62 melanoma, item OCC#Cc1ccccc1C#Cc1ccc(C#Cc2ccccc2C#CCO)cc1 ?
> 100 µM

Quick check: TGI on UACC-62 melanoma, item Brc1ccc2nc(-c3cccs3)nc(N3CCN(c4ccccc4)CC3)c2c1 ?
> 100 µM

Quick check: TGI on UACC-62 melanoma, item C/C(=N\N)C(CN1CCOCC1)C(c1ccccc1)c1c(O)c2ccccc2oc1=O (configuration not stated) ?
> 100 µM

Quick check: TGI on UACC-62 melanoma, item NC(=O)c1ccc(I)c([N+](=O)[O-])c1 ?
> 100 µM

Quick check: TGI on UACC-62 melanoma, item CC1(C)CC[C@]2(C)[C@@H](O)C[C@]3(C)C(=CC[C@@H]4[C@@]5(C)CC[C@H](O)C(C)(C)[C@@H]5CC[C@]43C)[C@@H]2C1 ?
> 100 µM

Quick check: TGI on UACC-62 melanoma, item O=c1cc(-c2ccccc2)oc2c(O)c(O)ccc12 ?
66.4 µM
